B1: Ventral anterior homeobox 1, residues 102 to 157; numbered along this chain, Q5SQQ9 (parent)
chain: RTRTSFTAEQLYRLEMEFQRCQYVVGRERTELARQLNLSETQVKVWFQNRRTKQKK

variants of: B1; assay: abundance fitness (aPCA) (normalised: wild type 0, dead -1); higher = more abundant; growth selection in yeast, the domain comes from the species named; details: Homo sapiens
Everything with abundance fitness lower than -0.5 is -1; everything else, including exactly -0.5, is 1.

Solved entries (count: 5):
E17T; 1
F6M; 1
S39W; -1
R20K; 1
E17I; -1

Query string: Tell me whether abundance fitness is at least -0.5 here: `V25Y`
Result string: 1

Query string: Tell me whether abundance fitness is at least -0.5 here: `W46V`
Result string: -1

Query string: Tell me whether abundance fitness is at least -0.5 here: `T2L`
Result string: 1
